Parameter glycan array binding signal (z-score): see the listing below.
Biological target: Gal(b1-4)GlcNAc(b1-6)GalNAc
Assay: glycan array binding signal (z-score within array); higher = stronger binding
Details: glycan notation: IUPAC condensed, linker removed
This is one part of a sample in which the strongest signals are shown more often than they occur.

BINDER	glycan array binding signal (z-score)
GALT1 615 (Arabidopsis thaliana), Q8L7F9 (protein) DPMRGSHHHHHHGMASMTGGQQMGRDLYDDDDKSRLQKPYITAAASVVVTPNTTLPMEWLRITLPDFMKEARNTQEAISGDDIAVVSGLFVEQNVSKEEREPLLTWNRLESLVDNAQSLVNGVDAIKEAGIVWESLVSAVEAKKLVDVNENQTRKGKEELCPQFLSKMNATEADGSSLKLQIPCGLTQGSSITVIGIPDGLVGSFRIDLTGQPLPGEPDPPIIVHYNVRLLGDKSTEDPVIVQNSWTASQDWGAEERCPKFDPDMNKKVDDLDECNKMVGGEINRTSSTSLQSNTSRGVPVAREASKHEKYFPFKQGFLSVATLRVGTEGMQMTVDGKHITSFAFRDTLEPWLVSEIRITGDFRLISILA	-0.439
T7P4 (Tuber borchii) (protein) GSHIGPYMSFYASSEDVRTIEEGGRTWLVGRARRADGSWQDIKLDLDNIIGNRDGHLTWGEQNFTQSASDIRFNFEGSNVPVLRAKLRNAAGGEQESDLNLGERLTNNNGDLVFN	-0.221
Cohesin-hMARCO (Homo sapiens) (protein) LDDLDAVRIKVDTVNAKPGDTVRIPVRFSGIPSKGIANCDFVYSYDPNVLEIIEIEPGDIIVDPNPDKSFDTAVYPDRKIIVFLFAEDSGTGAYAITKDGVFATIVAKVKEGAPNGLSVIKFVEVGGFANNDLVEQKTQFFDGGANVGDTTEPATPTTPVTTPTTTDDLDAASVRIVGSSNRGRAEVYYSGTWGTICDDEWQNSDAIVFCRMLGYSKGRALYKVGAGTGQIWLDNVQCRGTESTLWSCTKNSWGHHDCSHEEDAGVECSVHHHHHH	1.21
